Numbers sourced from patent US8822468B2.

Target Under Test: cMET receptor tyrosine kinase (GST-cMET (969-1390)) (Homo sapiens, UniProt P08581)
Sequence (P08581 969-1390): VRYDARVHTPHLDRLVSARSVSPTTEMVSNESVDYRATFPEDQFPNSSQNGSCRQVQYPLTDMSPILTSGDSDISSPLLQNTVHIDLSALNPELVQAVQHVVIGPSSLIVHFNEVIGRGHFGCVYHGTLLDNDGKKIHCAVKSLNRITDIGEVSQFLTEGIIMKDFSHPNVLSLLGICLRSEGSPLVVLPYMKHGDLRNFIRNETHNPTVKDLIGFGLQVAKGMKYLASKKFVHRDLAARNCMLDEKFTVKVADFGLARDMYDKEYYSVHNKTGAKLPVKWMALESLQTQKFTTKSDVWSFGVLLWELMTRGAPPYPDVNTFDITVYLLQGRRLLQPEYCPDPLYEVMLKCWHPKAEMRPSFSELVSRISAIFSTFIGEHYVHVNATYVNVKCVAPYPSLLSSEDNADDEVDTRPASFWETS
Procedure Summary: EPK cMET profiling assay (LanthaScreen TR-FRET antibody based kinase phosphorylation assay)
Experimental Setup: purified recombinant GST-cMET (969-1390), 2 μM ATP, 50 nM Fluorescein-PolyEAY, 60 minutes at room temperature; read-out: c-Met IC50
Parameter: pIC50
# pIC50 is unitless: minus log10 of the molar concentration; print number only

Noted for `CN(C)CCNC(=O)c1cccc(-c2ccc3ncc(Cc4ccc5ncccc5c4)n3n2)c1` : its pIC50 reads 7.22

Noted for Cn1cc(-c2ccc3ncc(C(O)c4ccc5ncccc5c4)n3n2)cn1 (racemic) : its pIC50 reads 6.85

Noted for `c1cnc2ccc(Cc3cnc4ccc(-c5cnn(C6CCNCC6)c5)nn34)cc2c1` : its pIC50 reads 7.30

Noted for OC(c1cc2cccnc2cc1F)c1cnc2ccc(-c3cn[nH]c3)nn12 (racemic) : its pIC50 reads 6.55

Noted for `C[C@@H](c1cc2cnn(C)c2cc1F)c1cnc2ccc(-c3cnn(C)c3)nn12` : its pIC50 reads 7.74
